These measurements were taken from patent US12331040B2.

Assign pIC50 to each entry below.
Test system: Z138 cells
Experiment: MTT cell proliferation assay
Assay type: cell-based
Settings: Homo sapiens, Z-138, Z138 cells; approximately 64-72 hours incubation; read-out: MTT Assay IC50 Z-138
pIC50: −log10 of the molar value.

// worked examples, pIC50 included
CC1(C)COCCN1C(=O)c1ccc(-c2cc(C(F)(F)F)c3oc(CNC(=O)/C=C/c4ccc(N)nc4)cc3c2)nc1 [Compound 569] | > 7.00
Nc1ccc(/C=C/C(=O)NCc2cc3cc(-c4ccc(C(=O)CN5CCOCC5)cc4)cc(Cl)c3o2)cn1 [Compound 507] | 5.30 to 7.00
Nc1ccc(/C=C/C(=O)NCc2cc3cc(-c4ncc(C(=O)N5CCOCC5)cn4)cc(C(F)(F)F)c3o2)cn1 [Compound 593] | 5.30 to 7.00
O=C(/C=C/c1cccnc1)NCc1cc2cc(-c3ccc(C(=O)N4CCOCC4)cc3)cc(Cl)c2o1 [Compound 538] | 5.30 to 7.00
Nc1ccc(/C=C/C(=O)NCc2cc3cc(-c4cccc(OC(=O)N5CCOCC5)c4)cc(C(F)(F)F)c3o2)cn1 [Compound 558] | < 5.00

Field: next compound
Look up Z138 cells data: pIC50 of Nc1ccc(/C=C/C(=O)NCc2cc3cc(-c4ccc(C(=O)N5CCCNCC5)cc4)cc(C(F)(F)F)c3o2)cn1 [Compound 573] , then report it.
> 7.00
